- System: MDA-MB-435 melanoma
- TEST SUMMARY: NCI-60 one-dose screen, 48 h (100 = growth as untreated, 0 = no growth, -100 = all killed)
- RUN PARAMETERS: 10 µM unless noted
The panel holds about 83,000 compounds, 20% with a hit somewhere; the sample as a whole holds those more often.
Each entry gets class 0 if its growth stays under 60%, and class 1 if its growth is 60% or above.

{"COMPOUND": "O=C1NN(c2ccccc2)C(c2ccc(Cl)cc2)N2CCC[C@H]12 (stereo partly drawn)", "TARGET": "MDA-MB-435 melanoma", "DISCRETE LABEL": "class 1"}
{"COMPOUND": "O=C(Nc1nc(-c2ccccc2Cl)cs1)c1cc(-c2ccc(Br)cc2)nc2ccccc12", "TARGET": "MDA-MB-435 melanoma", "DISCRETE LABEL": "class 1"}

Req: Determine whether this compound has growth no lower than 60%: `COc1ccc2c(c1)/C(=C1\S/C(=N/c3nnc(C)s3)NC1=O)C(=O)N2Cc1ccc(Cl)cc1`
Resp: class 0

Req: Please check the record `C=C1C(=O)O[C@H]2[C@H]1CC/C(COC(=O)NCc1nc3ccccc3[nH]1)=C\CC[C@@]1(C)O[C@@H]21` and state if its growth is at or above 60%.
Resp: class 1

Req: State whether the measured growth reaches 60%, counting equality as reaching it, for COc1cc(C2CC(c3ccc(Nc4nc(NCCO)nc(NCCO)n4)cc3)=NN2c2cc(Cl)cc(Cl)c2)cc(OC)c1OC (stereo not drawn)
Resp: class 0

Req: Say whether `C=C(C)[C@@H]1CC[C@]2(C(=O)O)CC[C@]3(C)[C@H](CC[C@@H]4[C@@]5(C)C[C@@H](CC#Cc6ccccc6C)C(=O)C(C)(C)[C@@H]5CC[C@]43C)[C@@H]12` shows growth of 60% or more.
Resp: class 0

Req: Hi team, for `COc1ccc2cc(/C=C3\N=C(c4cc(OC)c(OC)c(OC)c4)OC3=O)c(OC)nc2c1` , is the recorded growth at or above 60%?
Resp: class 1

Req: Record `COc1cccc(NC(=O)Nc2ccc(Oc3ncnc4[nH]c(C)c(C)c34)cc2)c1` ; criterion: growth no lower than 60%. Met?
Resp: class 1

====

- Test system: HCC-2998 colon
- TEST SUMMARY: NCI-60 one-dose screen, 48 h
- RUN PARAMETERS: 10 µM unless noted
Compounds without any hit were thinned out: in the full panel of roughly 83,000, 20% have a hit. Active and inactive are the calls of the source. Rule for the calls: active = growth percent below 10; inactive = the rest.
Tick one outcome: active, inactive

{"COMPOUND": "COc1cc(C(=O)N2CCN(c3ccccc3OC)CC2)c(NC(=O)c2cnccn2)cc1OCc1ccccc1", "TARGET": "HCC-2998 colon", "DISCRETE LABEL": "inactive"}

Req: Dear all, I need the recorded test outcome for `COc1cc(-c2csc(NC(=O)Nc3ccc(C(F)(F)F)cc3)n2)cc(OC)c1OC` , thank you.
Resp: inactive

Req: Could you please tell me the result logged for `CC(C)(C)c1nn(-c2ccccc2)c2c1COCN2Cc1ccc(Cl)cc1` in this assay?
Resp: inactive

Req: Assay outcome for `C=C1C(=O)O[C@H]2[C@H]1CC/C(COC(=O)n1ccnc1)=C\CC[C@@]1(C)O[C@@H]21` : what was it?
Resp: inactive

Req: How did this test come out for COc1cc(C(C)c2ccc3c(ccn3C)c2)cc(OC)c1OC (stereo not given) ?
Resp: inactive

Req: Query: recorded result category for `Nc1c(C(=O)c2ccccc2)sc2nc(-c3cc4ccccc4o3)cc(-c3ccc(Cl)cc3)c12` in this test
Resp: inactive

Req: How was `O=C(O)COc1ccc2c(=O)c3sc4c(=O)c5ccccc5c(=O)c4c3c(=O)c2c1` classified in this test?
Resp: active

Req: Please state the recorded outcome for this compound: `CN(C)C1=NCCN1`
Resp: inactive

Req: Recorded test call requested for COc1ccc(-c2nc(C#N)c(NCC(c3ccco3)N3CCCC3)o2)cc1 (stereo not given)
Resp: inactive

Req: For `NS(=O)(=O)c1ccc(-n2ncc(NC(=O)Nc3ccc(S(=O)(=O)Nc4nccs4)cc3)c2-c2ccccc2)cc1` , which call appears in the assay record?
Resp: inactive

Req: Name the outcome recorded for `C[C@]12CC[C@@H]3c4ccc(O)cc4CC[C@H]3[C@@H]1C[C@H](O)C2` in the assay.
Resp: inactive

Req: // param item: `Nc1cc(N)nc(SCC(=O)O)n1` ; yields the recorded call
Resp: inactive

====

- Tested on: SK-OV-3 ovarian
- TEST SUMMARY: NCI-60 one-dose screen, 48 h (100 = growth as untreated, 0 = no growth, -100 = all killed)
- RUN PARAMETERS: 10 µM unless noted
This is part of a sample that, as a whole, favours compounds with a hit. Of some 83,000 tested, about 20% had one in any assay.
MEASURED ENDPOINT: growth (%)
Response body: numeric value in %, unit text excluded.

{"COMPOUND": "Cc1cc(O)cc(O)c1N=NC1=NCCS1", "TARGET": "SK-OV-3 ovarian", "growth [%]": 97.2}
{"COMPOUND": "O=C(Nc1ccc2ncnc(Nc3ccc(F)c(Cl)c3)c2c1)c1ccccc1", "TARGET": "SK-OV-3 ovarian", "growth [%]": 45.1}
{"COMPOUND": "O=C1CCC23OC(C(O)c4ccccc4N12)C1C(Br)=NOC13 (centres undefined)", "TARGET": "SK-OV-3 ovarian", "growth [%]": 99}

Req: Look up and report measured growth for this entry: `C=C(C)[C@@H]1CC[C@]2(C(=O)N=C=S)CC[C@]3(C)[C@H](CC[C@@H]4[C@@]5(C)CCC(=O)C(C)(C)[C@@H]5CC[C@]43C)[C@@H]12`
Resp: 14.7

Req: Give the value of growth reported for the following: `N#Cc1c(-c2ccc(F)cc2)c(C#N)c2c(C#N)c(N)nn2c1N`
Resp: 82.2

Req: Note growth for the compound shown: `CCSc1nc(Cl)c(C#N)c(-c2ccc(F)cc2)n1`
Resp: 99.7

Req: Determine its reported growth: `C#C[C@@]1(O)[C@@H](CO)O[C@@H](n2ccc3c(N)ncnc32)[C@@H]1O`
Resp: -7.62

Req: Fill in growth for record `C#C[C@@]1(O)[C@@H](CO)O[C@@H](n2cc(-c3ccco3)c3c(N)ncnc32)[C@@H]1O`
Resp: 26.3

Req: Respond only with growth recorded for CCC1S/C(=N\N=C(/C)c2ccc[nH]2)N(c2ccccc2)C1=O (centres undefined)
Resp: 123

====

- Tested on: U251 CNS
- TEST SUMMARY: NCI-60 one-dose screen, 48 h
- RUN PARAMETERS: 10 µM unless noted
- Experimental: Growth inhibition of the U251 human tumor cell line is measured as a screen for anti-cancer activity. Cells are grown in 96 well plates and exposed to the test compound for 48 hours. Compounds are tested at a single concentration, which is 10^-5 M for most compounds. The reported endpoint is percent growth (GI% or GIPRCNT), where numbers from 0 - 100% represent growth inhibition, and numbers from -100% - 0 represent cell death. For example, a value of 40 represents 60% growth inhibition. […]
This is part of a sample that, as a whole, favours compounds with a hit. Of some 83,000 tested, about 20% had one in any assay. The source made the active and inactive calls. Rule for the calls: active = growth percent below 10; inactive = the rest.
A correct response names exactly one class from y (active), n (inactive)

{"COMPOUND": "COC(=O)/C=C1\\SC(=Nc2ccc(C(F)(F)F)cc2)N(CCc2c[nH]c3ccccc23)C1=O", "DISCRETE LABEL": "y"}
{"COMPOUND": "O=C1CS/C(=N/c2nnc(-c3ccc(O)cc3)s2)N1", "DISCRETE LABEL": "n"}
{"COMPOUND": "NC[C@@H]1CCN(c2cc3c(cc2F)c(=O)n(N)c(=O)n3Cc2ccc(-c3ccccc3)cc2)C1", "DISCRETE LABEL": "n"}

Req: // return assay outcome for `Cc1c(Cl)cccc1NC(=O)c1sc2nc3c(cc2c1N)COCC3`
Resp: n

Req: State the result this test recorded for CC1(c2ccccc2Cl)NC(=O)NC1=O (stereo not drawn) .
Resp: n

Req: Hey, what did the test say about `C=C1C(=O)O[C@H]2[C@H]1CC/C(COC(=O)n1ccnc1)=C\CC[C@@]1(C)O[C@@H]21` ?
Resp: n

Req: # fetch the recorded call for `Cc1c(Cl)cccc1NC(=O)c1sc2nc3c(cc2c1N)CCCCCC3` here
Resp: n

Req: Hi, sorry to bother you, what did the test record for `CCO/C=N/S(=O)(=O)c1cc2c(cc1Cl)NC=NS2(=O)=O` ?
Resp: n

Req: Lab log entry: CC(=O)ON1CCCC(P(=O)(OCOC(=O)C(C)(C)C)OCOC(=O)C(C)(C)C)C1=O (stereo not drawn) — outcome as called in the assay?
Resp: y
